melting point values, listed per item
result type: melting point

mol=Cn1c(=N)c(F)cn(C(=O)Oc2ccccc2)c1=O result_type="melting point" measured="86.4 to 87.6 °C"
mol=Cc1ccc(OC(=O)n2cc(F)c(=N)n(C)c2=O)cc1 result_type="melting point" measured="109 to 110.2 °C"
mol=COc1ccc(OC(=O)/N=c2/c(F)cn(C(=O)Oc3ccc(OC)cc3)c(=O)n2C)cc1 result_type="melting point" measured="161.8 to 165.6 °C"
mol=COc1ccc(OC(=O)n2cc(F)c(=N)n(C)c2=O)cc1 result_type="melting point" measured="135.6 to 137.1 °C"
